Source of measurements: BindingDB's records for doi:10.1021/np500803e

biological target: Signal transducer and activator of transcription 3 (Homo sapiens); experiment: Inhibition of IL6-induced STAT3 activation in human Hep3B cells after 12 hrs by luciferase assay
measurement.type: pIC50
API: returns pIC50 as number; meaning -log10 of concentration in mol/L.

Here is how some molecules turned out for pIC50.
CC(C)/C=C/C[C@](C)(O[C@@H]1O[C@H](CO[C@@H]2O[C@@H](C)[C@H](O)[C@@H](O)[C@H]2O)[C@@H](O)[C@H](O)[C@H]1O)[C@H]1CC[C@]2(C)[C@@H]1[C@H](O)C[C@@H]1[C@@]3(C)CC[C@H](O[C@@H]4O[C@H](CO)[C@@H](O)[C@H](O)[C@H]4O[C@@H]4O[C@H](CO)[C@@H](O)[C@H](O)[C@H]4O)C(C)(C)[C@@H]3CC[C@]12C = 5.40
C=C(C)C(=O)CC[C@](C)(O[C@@H]1O[C@H](CO[C@@H]2O[C@@H](C)[C@H](O)[C@@H](O)[C@H]2O)[C@@H](O)[C@H](O)[C@H]1O)[C@H]1CC[C@]2(C)[C@@H]1[C@H](O)C[C@@H]1[C@@]3(C)C[C@@H](O)[C@H](O)C(C)(C)[C@@H]3CC[C@]12C = 6.23

Please report the recorded pIC50 for C=C(C)C(=O)CC[C@](C)(O[C@@H]1O[C@H](CO[C@@H]2O[C@@H](C)[C@H](O)[C@@H](O)[C@H]2O)[C@@H](O)[C@H](O)[C@H]1O)[C@H]1CC[C@]2(C)[C@@H]1[C@H](O)C[C@@H]1[C@@]3(C)C[C@@H](O)[C@H](O[C@@H]4O[C@H](CO)[C@@H](O)[C@H](O)[C@H]4O[C@@H]4O[C@H](CO)[C@@H](O)[C@H](O)[C@H]4O)C(C)(C)[C@@H]3CC[C@]12C .
4.72

Please report the recorded pIC50 for C[C@@H]1O[C@@H](OC[C@H]2O[C@@H](O[C@@](C)(C/C=C/C(C)(C)O)[C@H]3CC[C@]4(C)[C@@H]3[C@H](O)C[C@@H]3[C@@]5(C)C[C@@H](O)[C@H](O[C@@H]6O[C@H](CO)[C@@H](O)[C@H](O)[C@H]6O)C(C)(C)[C@@H]5CC[C@]34C)[C@H](O)[C@@H](O)[C@@H]2O)[C@H](O)[C@H](O)[C@H]1O .
4.77

---

biological target: Signal transducer and activator of transcription 3 (Homo sapiens, UniProt P40763); assay: Inhibition of IL6-induced STAT3 activation in human Hep3B cells after 12 hrs by luciferase assay
Sequence (P40763 whole entry): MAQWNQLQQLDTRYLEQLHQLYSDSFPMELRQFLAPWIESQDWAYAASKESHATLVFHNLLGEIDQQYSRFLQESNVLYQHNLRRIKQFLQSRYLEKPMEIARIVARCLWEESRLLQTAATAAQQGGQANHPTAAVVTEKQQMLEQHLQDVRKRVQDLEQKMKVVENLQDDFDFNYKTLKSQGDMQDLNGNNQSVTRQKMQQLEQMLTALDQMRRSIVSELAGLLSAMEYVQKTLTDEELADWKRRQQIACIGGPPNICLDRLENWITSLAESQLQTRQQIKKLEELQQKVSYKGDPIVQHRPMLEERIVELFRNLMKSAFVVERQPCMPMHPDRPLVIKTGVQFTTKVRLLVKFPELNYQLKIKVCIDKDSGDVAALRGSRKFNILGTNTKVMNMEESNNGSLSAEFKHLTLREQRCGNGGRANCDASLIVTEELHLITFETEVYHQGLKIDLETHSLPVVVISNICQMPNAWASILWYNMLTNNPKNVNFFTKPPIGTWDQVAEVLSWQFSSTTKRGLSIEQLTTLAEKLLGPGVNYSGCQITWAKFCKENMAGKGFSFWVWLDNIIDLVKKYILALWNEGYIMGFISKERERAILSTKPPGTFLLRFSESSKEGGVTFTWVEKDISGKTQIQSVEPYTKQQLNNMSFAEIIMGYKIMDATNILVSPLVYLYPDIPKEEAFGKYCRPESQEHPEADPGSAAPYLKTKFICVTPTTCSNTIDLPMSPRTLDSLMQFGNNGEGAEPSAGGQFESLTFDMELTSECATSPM
measurement.type: pIC50
API: returns pIC50 as number; meaning -log10 of concentration in mol/L.

Here is how some compounds turned out for pIC50.
CC(C)/C=C/C[C@](C)(O[C@@H]1O[C@H](CO[C@@H]2O[C@@H](C)[C@H](O)[C@@H](O)[C@H]2O)[C@@H](O)[C@H](O)[C@H]1O)[C@H]1CC[C@]2(C)[C@@H]1[C@H](O)C[C@@H]1[C@@]3(C)C[C@@H](O)[C@H](O)C(C)(C)[C@@H]3CC[C@]12C = 6.30
CC(C)/C=C/C[C@](C)(O[C@@H]1O[C@H](CO[C@@H]2O[C@@H](C)[C@H](O)[C@@H](O)[C@H]2O)[C@@H](O)[C@H](O)[C@H]1O)[C@H]1CC[C@]2(C)[C@@H]1[C@H](O)C[C@@H]1[C@@]3(C)C[C@@H](O)[C@H](O[C@@H]4O[C@H](CO)[C@@H](O)[C@H](O)[C@H]4O)C(C)(C)[C@@H]3CC[C@]12C = 4.75

Please report the recorded pIC50 for C=C(C)C(=O)CC[C@](C)(O[C@@H]1O[C@H](CO[C@@H]2O[C@H](CO)[C@@H](O)[C@H](O)[C@H]2O)[C@@H](O)[C@H](O)[C@H]1O)[C@H]1CC[C@]2(C)[C@@H]1[C@H](O)C[C@@H]1[C@@]3(C)C[C@@H](O)[C@H](O)C(C)(C)[C@@H]3CC[C@]12C .
6.57

---

biological target: UniProt:P40763; experiment: Inhibition of IL6-induced STAT3 activation in human Hep3B cells after 12 hrs by luciferase assay
Listed below: IC50 values for each entry.

Here is how some molecules turned out for IC50.
CC(C)(/C=C/C[C@](C)(O[C@@H]1O[C@H](CO[C@@H]2O[C@H](CO)[C@@H](O)[C@H](O)[C@H]2O)[C@@H](O)[C@H](O)[C@H]1O)[C@H]1CC[C@]2(C)[C@@H]1[C@H](O)C[C@@H]1[C@@]3(C)C[C@@H](O)[C@H](O)C(C)(C)[C@@H]3CC[C@]12C)OO = > 30 µM
C[C@@H]1O[C@@H](OC[C@H]2O[C@@H](O[C@@](C)(C/C=C/C(C)(C)OO)[C@H]3CC[C@]4(C)[C@@H]3[C@H](O)C[C@@H]3[C@@]5(C)C[C@@H](O)[C@H](O[C@@H]6O[C@H](CO)[C@@H](O)[C@H](O)[C@H]6O[C@@H]6O[C@H](CO)[C@@H](O)[C@H](O)[C@H]6O)C(C)(C)[C@@H]5CC[C@]34C)[C@H](O)[C@@H](O)[C@@H]2O)[C@H](O)[C@H](O)[C@H]1O = > 30 µM

For the next question, use this molecule.
Please report the recorded IC50 for CC(C)/C=C/C[C@](C)(O[C@@H]1O[C@H](CO[C@@H]2O[C@@H](C)[C@H](O)[C@@H](O)[C@H]2O)[C@@H](O)[C@H](O)[C@H]1O)[C@H]1CC[C@]2(C)[C@@H]1[C@H](O)C[C@@H]1[C@@]3(C)C[C@@H](O)[C@H](O[C@@H]4O[C@H](CO)[C@@H](O)[C@H](O)[C@H]4O[C@@H]4O[C@H](CO)[C@@H](O)[C@H](O)[C@H]4O)C(C)(C)[C@@H]3CC[C@]12C .
> 30 µM
